Measured values drawn from patent US20260125375A1 for this set.

Entries and their Kd
# target: WT CBL-B (36-427) (Homo sapiens, UniProt Q13191)
# Construct: N-terminal biotinylated WT CBL-B (36-427) and C-CBL (46-435) were captured on a streptavidin (SA) coated sensor chip
# method-notes: Surface Plasmon Resonance (SPR) assay, binding affinity and kinetics, CBL-B
# study-conditions: SPR at 10° C., biotinylated WT CBL-B (36-427) on streptavidin chip; geometric mean; read-out: CBL-B SPR Kd (nM) GMean
Kindly format the answer as number then unit.

Cn1cnnc1[C@@H](c1cccc(-c2n[nH]c3c(CN4C[C@@H](O)[C@H](O)C4)nc(C(F)(F)F)cc23)c1)C1CCC1 :: 3.2 nM
C[C@H](c1nc(C(F)(F)F)cc2c(-c3cccc(C4(Cc5nncn5C)COC4)c3)n[nH]c12)N1CC(F)(F)C1 (single isomer, unassigned) :: 12.2 nM
C[C@H](c1nc(C(F)(F)F)cc2c(-c3cccc(C4(Cc5nncn5C)COC4)c3)n[nH]c12)N1C[C@H](F)[C@@H](F)C1 (single isomer, unassigned) :: 15.8 nM

The recorded Kd for entry C[C@H](Cc1nncn1C)c1cccc(-c2n[nH]c3cnc(C(F)(F)F)cc23)c1 equals 35.8 nM

The recorded Kd for entry CN1CC[C@@H](Oc2nc(C(F)(F)F)cc3c(-c4cccc([C@H](c5nncn5C)C5CCC5)c4)n[nH]c23)C1 equals 3.7 nM

The recorded Kd for entry C[C@@H](c1nc(C(F)(F)F)cc2c(-c3cccc(C4(Cc5nncn5C)COC4)c3)n[nH]c12)N1C[C@H](F)[C@@H](F)C1 (single isomer, unassigned) equals 2.3 nM

The recorded Kd for entry C[C@@H]1CCCN(Cc2nc(C(F)(F)F)cc3c(-c4cccc([C@H](c5nncn5C)C5CCC5)c4)n[nH]c23)C1 equals 5.5 nM

The recorded Kd for entry Cn1cnnc1[C@@H](c1cccc(-c2n[nH]c3c(CN[C@@H]4CCC[C@H]4O)nc(C(F)(F)F)cc23)c1)C1CCC1 equals 3.3 nM

The recorded Kd for entry C[C@H](N[C@H]1C[C@H](O)C1)c1nc(C(F)(F)F)cc2c(-c3cccc([C@H](c4nncn4C)C4CCC4)c3)n[nH]c12 (single isomer, unassigned) equals 5.1 nM

* * *

# target: C-CBL (residues 46-435) (Homo sapiens)
# Construct: Purified CBL-B (residues 36-427) and C-CBL (residues 46-435) proteins from baculovirus-infected insect cells; made in house; host or cells: baculovirus-infected insect cells
# method-notes: Ligand Displacement Assay (LDA), HTRF competitive binding against BODIPY-labeled fluorescent tracer, C-CBL
# study-conditions: geometric mean of the number of tests, read-out: C-CBL Ki (nM) GMean
# strict inequality: Ki < 20 nM yields YES, everything else yields NO

Illustrative cases are given below, each with its answer.
C[C@H](c1nc(C(F)(F)F)cc2c(-c3cccc(C4(Cc5nncn5C)COC4)c3)n[nH]c12)N1CCNC(=O)C1 (single isomer, unassigned) :: NO
C[C@H](N[C@H]1COC[C@H]1O)c1nc(C(F)(F)F)cc2c(-c3cccc([C@H](c4nncn4C)C4CCC4)c3)n[nH]c12 (single isomer, unassigned) [Example D61] :: NO
C[C@@H](N[C@@H]1CCC(F)(F)C1)c1nc(C(F)(F)F)cc2c(-c3cccc(C4(Cc5nncn5C)COC4)c3)n[nH]c12 (single isomer, unassigned) :: YES
C[C@H](CO)N[C@@H](C)c1nc(C(F)(F)F)cc2c(-c3cccc([C@H](c4nncn4C)C4CCC4)c3)n[nH]c12 (single isomer, unassigned) :: NO

For CC(C)[C@H]1CNCCN1Cc1nc(C(F)(F)F)cc2c(-c3cccc([C@H](c4nncn4C)C4CCC4)c3)n[nH]c12 , is the recorded Ki below the cut-off of 20 nM? YES
